# Method: Volume of distribution at steady state in C57BL/6 mouse at 1 mg/kg, iv by LC-MS/MS analysis
# Type: ADME, organism-based
# Test Context: in vivo, read-out: Vdss
Numbered stars: 1 amine (or outer) side, 2 acyl side, 3 side chain; on linkers, the order of the positions; unused ones are H or OH. Square brackets hold non-standard residues; d marks the D form. Peptide text beside a SMILES is read from it. Trp(5-F) = N[C@@H](Cc1c[nH]c2ccc(F)cc12)C(=O)O; Lys(Me3) = C[N+](C)(C)CCCC[C@H](N)C(=O)O; X1 = O=C(CCSCc1cccc(CSCCN[*:1])c1)[*:2]; αMeP = C[C@@]1(C(=O)O)CCCN1

| Compound | Units Symbol | Vd |
| --- | --- | --- |
| COc1ccc(C[C@@H]2NC(=O)[C@H]([C@@H](C)O)NC(=O)[C@@H]3CCC(=O)NCc4cccc(c4)C[C@H](NC(=O)[C@@H](C)NC(=O)[C@H](C)NC(=O)CCSCc4cccc(c4)CSCCNC(=O)[C@]4(C)CCCN4C2=O)C(=O)N[C@@H](Cc2c[nH]c4ccc(F)cc24)C(=O)N3)cc1 | L/kg | 0.23 |
| NCCCC[C@@H]1NC(=O)CCSCc2cccc(c2)CSC[C@@H](C(N)=O)NC(=O)[C@@H]2CCCN2C(=O)[C@H](Cc2ccc(O)cc2)NC(=O)[C@H](Cc2c[nH]cn2)NC(=O)[C@H](CC(=O)O)NC(=O)[C@H](Cc2c[nH]c3ccc(F)cc23)NC(=O)[C@H](Cc2c[nH]c3ccc(F)cc23)NC(=O)CNC1=O | L/kg | 0.7 |
| COc1ccc(C[C@@H]2NC(=O)[C@H](Cc3cnc[nH]3)NC(=O)[C@H](CC(=O)O)NC(=O)[C@H](Cc3c[nH]c4ccc(F)cc34)NC(=O)[C@H](Cc3c[nH]c4ccc(F)cc34)NC(=O)[C@@H](C)NC(=O)[C@H](CCCC[N+](C)(C)C)NC(=O)CCSCc3cccc(c3)CSCCNC(=O)[C@]3(C)CCCN3C2=O)cc1 (cyclo(DHY(Me)[αMeP][X1][Lys(Me3)][dA][Trp(5-F)][Trp(5-F)])) | L/kg | 0.45 |
| C[C@H]1NC(=O)[C@H](CCCCN)NC(=O)CCSCc2cccc(c2)CSC[C@@H](C(N)=O)NC(=O)[C@]2(C)CCCN2C(=O)[C@H](Cc2ccc(O)cc2)NC(=O)[C@H]([C@@H](C)O)NC(=O)[C@@H]2C[C@H](F)CN2C(=O)[C@H](Cc2c[nH]c3ccc(F)cc23)NC(=O)[C@H](Cc2c[nH]c3ccc(F)cc23)NC1=O | L/kg | 0.37 |

* * *

# Method: Half life in C57BL/6 mouse whole blood at 100 uM by LC-MS/MS analysis
# Assay type: ADME, tissue-based
Numbered stars: 1 amine (or outer) side, 2 acyl side, 3 side chain; on linkers, the order of the positions; unused ones are H or OH. Bridge positions count the residues as written; N and C are the ends. Square brackets hold non-standard residues; d marks the D form. Peptide text beside a SMILES is read from it. Trp(5-F) = N[C@@H](Cc1c[nH]c2ccc(F)cc12)C(=O)O; Lys(Me3) = C[N+](C)(C)CCCC[C@H](N)C(=O)O; X1 = O=C(CCSCc1cccc(CSCCN[*:1])c1)[*:2]; mXylylene = c1cc(C[*:1])cc(C[*:2])c1; αMeP = C[C@@]1(C(=O)O)CCCN1; Mpa = O=C(O)CCS
Measured half-life at 100 µM by item

| Compound | Qualifier Sign | half-life at 100 µM (h) |
| --- | --- | --- |
| COc1ccc(C[C@@H]2NC(=O)[C@H](Cc3cnc[nH]3)NC(=O)[C@H](CC(=O)O)NC(=O)[C@H](Cc3c[nH]c4ccc(F)cc34)NC(=O)[C@H](Cc3c[nH]c4ccc(F)cc34)NC(=O)[C@@H](C)NC(=O)[C@H](CCCC[N+](C)(C)C)NC(=O)CCSCc3cccc(c3)CSCCNC(=O)[C@]3(C)CCCN3C2=O)cc1 (cyclo(DHY(Me)[αMeP][X1][Lys(Me3)][dA][Trp(5-F)][Trp(5-F)])) | > | 6 |
| CO[C@H](C)[C@@H]1NC(=O)[C@@H]2CCCN2C(=O)[C@H](Cc2c[nH]c3ccc(F)cc23)NC(=O)[C@H](Cc2c[nH]c3ccc(F)cc23)NC(=O)CNC(=O)[C@H](CCCCN)NC(=O)CCSCc2cccc(c2)CSC[C@@H](C(N)=O)NC(=O)[C@]2(C)CCCN2C(=O)[C@H](Cc2ccc(O)cc2)NC1=O ([Mpa]KG[Trp(5-F)][Trp(5-F)]PT(Me)Y[αMeP]C-NH2; linker 1-10 via mXylylene) | = | 1.03 |
| C[C@@H]1NC(=O)CCSCc2cccc(c2)CSC[C@@H](C(N)=O)NC(=O)[C@@H]2CCCN2C(=O)[C@H](Cc2ccc(O)cc2)NC(=O)[C@H](Cc2cnc[nH]2)NC(=O)[C@H](CC(=O)O)NC(=O)[C@H](Cc2c[nH]c3ccc(F)cc23)NC(=O)[C@H](Cc2c[nH]c3ccc(F)cc23)NC(=O)CNC1=O ([Mpa]AG[Trp(5-F)][Trp(5-F)]DHYPC-NH2; linker 1-10 via mXylylene) | = | 1.49 |
